test summary: yeast display, Sf9 membrane polyspecificity reagent, FACS + sequencing; frameworks hold sequencing errors
attribute measured: polyreactivity (PSR sort gate)

>>> result_value("QVQRVESGGGLVQAGGSLRLSCAASGFIFRRYAMGWYRQAPGKERELVASISSGGNTNYADSVKGRFTISRDNAKNTVYLQMNSLKPEDTAVYYCNDEYRWIAYGYWGQGTQVTVSS")
"high polyreactivity"
>>> result_value("QVHLVESGGGLVQAGGSLRLSCAASGSTFRKYAMGWYRKAPGKERELDAAITSSGGRTYYADSVKGRFTISRDNAKNSVYLPLNSLKPEDTAVYYCAAGGPRFYSWRSEYDYWGQGTQVTVLS")
"high polyreactivity"

* * *

test summary: yeast display, Sf9 membrane polyspecificity reagent, FACS + sequencing; frameworks hold sequencing errors
attribute measured: polyreactivity (PSR sort gate)

In the examples that follow, each entry is paired with its recorded polyreactivity (PSR sort gate).
>>> result_value("QVQLVESGGGLVQAGGSLRLSCAASGFIFNGNVMGWYRQAPGKERELVAAITVSGGSTRYADSVKGRFTISRDNAKNTVYLQMNSLKPEDTAVYYCAARTRYLSYGWIHEYYYWGQGTQVTVSS")
"high polyreactivity"
>>> result_value("QVQLVESGGGLVQAGGSLRLSCAASGFIFGHYAMGWYRQAPGKERELVAAITRGGRTNYADSVKGRFTISRDNAKNTVYLQMNSLKPEDTAVYYCNALGKALYRSRFYYWGQGTQVTVSS")
"high polyreactivity"
>>> result_value("QVQLVESGGGLVHAGGSIRLSCAASGSIFRLYAMGWYRQAPGKERELVATISQRGGRTYYADSVKGRFTISRDNAKNTVYLQMNILKPEVTAVYYCNADHYYPWLDYWGLGTQVTVSS")
"high polyreactivity"
>>> result_value("QVQLVESGGGLVQAGASLRLSCAASGFIFGKYAMGWYRQAPGKERELVAAISSSGGSTYYADSVKGRFTISRDTAKNTVYLQMNSLKPEDTAGYYCNAKVRGTNTAGVDYWGQGTQVTVSS")
"high polyreactivity"
>>> result_value("QVQHVESGGGLVQAGGSLRLSCAASGFIFYDKAMGRYRTAPGKERELVAGITYRTGSTFYADSVKGRFTISRDNAKNTVYLQMISLKPEDTAVFYCAAVRRISWYTPVNTRRYYYWGQGTQVTVSS")
"high polyreactivity"
>>> result_value("QVQLVESGGGLVQAGGSLRLSCAASGFILDYNTMGWYRQAPGKERELVAAISSSGDTTYYADSVKGRFTISRDNAKNTVYLQMNSLKPEDTAVYYCDREYGDGYEYWGQGTQVTVSS")
"low polyreactivity"
>>> result_value("QVQLVESGGGLVQAGGSLRLSCAASGRTFYYYVMGWYRQAPGKERELVAAISARDGSTYYADSVKGRFTISRDNAKNTVYLQMNSLKPEDTAVYYCNVRALYTRRYDYWGQGTQVTVSS")
"high polyreactivity"
>>> result_value("QVQLVESGGGLVQAGGSLRLSCAAYGRIFSYYAMGWYRQAPGKERELVATINSGGSTNYADSVKGRFTISRDNAKNTVYLQMNSLKPEDTAVYYCDASPVWWYDYWGQGTQVTVSS")
"low polyreactivity"
>>> result_value("QVHLVESGGCLVQAGGSLRLSCAASGRIFGVYVMGWYRQARGTEREFVAAITWSGGRTYYADSVKGRFTISRDNAKNTVYFQMNSLKPQDTAVYYCAARRSYEYVYWGKGTQVTVSS")
"high polyreactivity"
>>> result_value("QDQLVESGGGLVQAGGSLRLSCAASGSTFPDYAMGRYRQAPGKERELFAAISSGGSTNYADSVKGRFTISRDNAKNTVYLQMNSLKPEDTAVYYCAADVGAIYDKAVNGYWGQGTQVTVSS")
"low polyreactivity"

Lookup: Requested read-out: polyreactivity (PSR sort gate). Entry: QVQLVESGGGLVQAGGSLRLSCAASGRTFRKNVMGWYRQAPGKEREFVASISSSGSSTYYADSVKGRFTISRDYAKNTVYLQMNSLKPEDTAVYYCAARSVYATKRKYDYWGQGTQVTVSS
Found: high polyreactivity

Lookup: Request the reported polyreactivity (PSR sort gate) associated with QVQLVESGGGLVQAGGSLRLSCAASGSTFWAYAMGWSRQAPGKERELVAAITSGGSTYADSVKGRFTISRDNAKNTVYLQMNSLKPEDTAVYYCAADVYYSGWWFDYWGQGTQVTVSS
Found: high polyreactivity

Lookup: # query: polyreactivity (PSR sort gate) of entry QVQLVESGGGLVQAGGSLRLSCAASGIIFPEYDRGWYRQAPGKERELVAAITKSDGRTYYADSVKGRFTISRDNAKNTVYLQMNSLKPEDTAVYYCNADPRVVAYLGFDSWGQGTQVTVSS
Found: low polyreactivity

Lookup: Sample QVQLVKSGGGLVQAGGSLRLSCAASVRTILYNAIGWYRQAPGKESELVAAITGGGSTYYADSVKGRFTISRDNAKNTVYLQMNSLKPEDTAVYYCAADLSVVRYDYWGQGTQVTVSS — what was its polyreactivity (PSR sort gate)?
Found: low polyreactivity

Lookup: If you can, please state the reported polyreactivity (PSR sort gate) value of QVQLVESGGGLVQAGGSLRLSCAASGSIFTRYAMGWYRQAPGKERELVAAISWIGTRTYYADSVKGRFTISRDNAKNTVYLQMNSLKPEDTAVYYCNAVSKVERYSYPHGRPFEYWGQGTQVTVSS .
Found: high polyreactivity

Lookup: Using the record for HVQLVESGGGLVQAGGSLRLSCAASGSILDGKALGWYRQAPGKERERVAGISESDGSTNYADSVKGRFTISRDNAKNTVYLQMNSLKPEDTAVSYCAADIWTSGDIPYDYWGQGTQVTVSS , report its polyreactivity (PSR sort gate).
Found: low polyreactivity

Lookup: Form field: reported polyreactivity (PSR sort gate) of QDQHVESGGGLVQAGGSLRLSCAASGRTFYQYAMGWYRQAPGKERELVAVINGGGSTNYADSVKGRFTISRDNAKNTVYLQMNSLKPEDTAVYYCNAGSVSDRQMDYWGQGTQVTVSS
Found: low polyreactivity

Lookup: I am curious: what polyreactivity (PSR sort gate) value has been reported for QVQLVESGGGLVQAGGSLRLSCAASGFIFWKNAMGWYRQAPGKERELVAAISWSGGRTYYADSVKGRFTISRDNAKNTVYLQMNSLKPEDTGVYYCDASVGPFPVRGDYWGQGTQVTVSS ?
Found: low polyreactivity

Lookup: Look at this sequence and give its reported polyreactivity (PSR sort gate). QVQLVESGGGLVQAGGRLRLSCAASGRICIIYALGWYRQAPGKEREFVAAITSSGGSTYYADSVKGRFTISRDNAKNTVYLQMNSLTPEDTAVYYCAARVTKLRTSSLRGYWGQGTQVTVSS
Found: high polyreactivity

Lookup: Entry under review: QVQLVESGGGFVQAGGSLRLSCAASGRLFFIYAMGWYRQAPGKDRELVAAITGRGGRTYYADSVKGRFTISRDKPKNTVYLEMYSQKPEDTAVYYCAADSRDSYLFYYWGQGTQVTVST . Reported polyreactivity (PSR sort gate)?
Found: high polyreactivity

Lookup: Could you tell me which polyreactivity (PSR sort gate) is on file for HVQLVESGGGLVQAGGSRLLSCAASGFTIYANAMGWYSQAPGKERELVAAITWRGGSTYYADSVKVRFTISRDNAKNTVYLQMNSLKPADTAVYYCNALKGRPVRSYLASPSYRYEYWGQGTQVTVSS ?
Found: high polyreactivity
